Recorded below: pIC50, system PHD2 (Homo sapiens, UniProt Q9GZT9).
pIC50: −log10 of the molar value.

>  <structure smiles>
O=C(NCc1ccc(-c2ccccc2)cc1)c1cnc(-n2cccn2)nc1

>  <pIC50>
< 5.00

$$$$
>  <structure smiles>
O=C(NCC1CCCCC1)c1cnc(-n2cccn2)cc1O

>  <pIC50>
< 5.00

$$$$
